System: male Slc:ICR mice
assaySummary: Action against pain-related behavior and micturition cycle in mice with cyclophosphamide (CP)-induced acute cystitis
Format: in vivo
statedConditions: Mus musculus, iv, 0.25 h; CP 300 mg/kg i.p.; test substance 1 mg/kg intravenously 3 hours after CP; 15 minutes observation; read-out: Percent inhibition of the frequency of urination (%)
inhibition in vivo at 1 mg/kg values for the compounds below.
Respond with the bare value in %.

{"smilesData": "N#Cc1ccc(-c2cc(OCc3ccc(F)cn3)nc3c2CCC3)cn1", "unitString": "%", "valueReported": 36.3}

Query block: Entry Cc1ncc(-c2cc(OCc3cccc(C#N)n3)nc3c2CCC3)cn1 has what inhibition in vivo at 1 mg/kg?
Result block: 31.5

Query block: Entry Cc1ncc(-c2cc(OCc3cccc(C#N)n3)nc3c2CCCC3)cn1 has what inhibition in vivo at 1 mg/kg?
Result block: 22.7

Query block: Entry Cc1ncc(-c2cc(OCc3ncccc3F)nc3c2CCCC3)cn1 has what inhibition in vivo at 1 mg/kg?
Result block: 51.6
